- System: PC49
- Procedure Summary: qHTS profiling for inhibitors of Plasmodium falciparum proliferation (AID 504749); also: nearly all actives have a fitted effect of over 60% in size
- Recorded Conditions: P. falciparum in erythrocytes, SYBR Green DNA, 72 h; series mostly up to 28.7 µM
Inconclusive results are not listed. The source made the active and inactive calls. Calls follow the shape of the dose curve; as a rule, active = well fitted inhibition curve with a large enough effect; inconclusive = small, poorly fitted or top-dose-only effect; inactive = flat fitted curve, though single readings scatter.
Bench note: report the call from 1 for active, -1 for inactive

Prompt: In this assay, the call recorded for "Cc1ccnc(NS(=O)(=O)c2ccc(N)cc2)n1" was what?
Response: -1

Prompt: In this assay, the call recorded for "O=C(OCCOCCO)c1ccccc1Nc1cccc(C(F)(F)F)c1" was what?
Response: -1

Prompt: In this assay, the call recorded for "Oc1ccc(Cl)c2cccnc12" was what?
Response: -1

Prompt: In this assay, the call recorded for "CC(C)(C)CC(C)(C)c1ccc(OCCOCC[N+](C)(C)Cc2ccccc2)cc1" was what?
Response: 1

Prompt: In this assay, the call recorded for CCOc1ccc(NC(=O)CC(C)O)cc1 (configuration not stated) was what?
Response: -1

Prompt: In this assay, the call recorded for "CCCCOc1ccc(OCCCN2CCOCC2)cc1" was what?
Response: -1

Prompt: In this assay, the call recorded for "CCCCCCC[N+](CC)(CC)CCCCc1ccc(Cl)cc1" was what?
Response: 1

Prompt: In this assay, the call recorded for "O=S1(=O)c2cccc3cccc(c23)N1CCCN1CCN(c2ccc(F)cc2)CC1" was what?
Response: -1

Prompt: In this assay, the call recorded for "NC(=NCCCCCCN=C(N)/N=C(\N)Nc1ccc(Cl)cc1)/N=C(\N)Nc1ccc(Cl)cc1" was what?
Response: 1

Prompt: In this assay, the call recorded for "CCOc1ccc2nc3cc(N)ccc3c(N)c2c1" was what?
Response: 1

Prompt: In this assay, the call recorded for "NCCCC[C@H](N[C@@H](CCc1ccccc1)C(=O)O)C(=O)N1CCC[C@H]1C(=O)O" was what?
Response: -1

Prompt: In this assay, the call recorded for "CN(C)CCCOc1nn(Cc2ccccc2)c2ccccc12" was what?
Response: -1

====

- System: CRL-7250
- Procedure Summary: Cytotoxic Profiling of Annotated Libraries Using Quantitative High-Throughput Screening (AID 1296008); also: % is scaled to controls: 0 for no effect and ±100 for the full control effect; nearly all actives have a fitted effect of over 60% in size
- Recorded Conditions: Five cell lines viability, CellTiter-Glo ATP luminescence, 48-72 h; hits give low values
Inconclusive results are not listed.
Readout Kind: max response (%)
All answers are understood in %, so give the number only.

Prompt: Name the recorded max response for "CN1CCC[C@@H]1c1cccnc1" .
Response: -7.79

Prompt: Name the recorded max response for "CC(=O)N/N=C/c1ccc([N+](=O)[O-])o1" .
Response: -0.507

Prompt: Name the recorded max response for "CN(C)CC/C=C1\c2ccccc2Sc2ccc(Cl)cc21" .
Response: -3.17

Prompt: Name the recorded max response for "C[C@]12CCC(=O)C=C1CC[C@H]1[C@@H]3CC[C@](O)(C(=O)CO)[C@@]3(C)C[C@H](O)[C@@]12F" .
Response: -14.8

Prompt: Name the recorded max response for "N[C@H](Cc1c[nH]c2ccccc12)C(=O)O" .
Response: -25

Prompt: Name the recorded max response for "C[C@@H]1C[C@H]2[C@@H]3CCC4=CC(=O)C=C[C@]4(C)[C@@]3(F)[C@@H](O)C[C@]2(C)[C@H]1C(=O)CO" .
Response: -8.13

====

- System: UISO
- Procedure Summary: qHTS assay to identify novel small-molecules to repurpose for Merkel cell carcinoma treatment (AID 1296009); also: nearly all actives have a fitted effect of over 60% in size
- Recorded Conditions: MCC and control cell lines, CellTiter-Glo viability, 72 h; series mostly up to 46 µM
Inconclusive results are not listed. The source made the active and inactive calls. Calls follow the shape of the dose curve; as a rule, active = well fitted inhibition curve with a large enough effect; inconclusive = small, poorly fitted or top-dose-only effect; inactive = flat fitted curve, though single readings scatter.
Bench note: report the call from yes (active), no (inactive)

Prompt: In this assay, the call recorded for "Cc1onc(-c2c(Cl)cccc2Cl)c1C(=O)N[C@@H]1C(=O)N2[C@@H]1SC(C)(C)[C@@H]2C(=O)O" was what?
Response: no

Prompt: In this assay, the call recorded for "CN(C)CC/C=C1/c2ccccc2COc2ccc(CC(=O)O)cc21" was what?
Response: no

Prompt: In this assay, the call recorded for "Nc1ccc(C(=O)O)cc1" was what?
Response: no

Prompt: In this assay, the call recorded for "CC(=O)O[C@]1(C(C)=O)CC[C@H]2[C@@H]3C[C@H](C)C4=CC(=O)CC[C@]4(C)[C@H]3CC[C@@]21C" was what?
Response: no

Prompt: In this assay, the call recorded for "C[C@@H](CN(C)C)CN1c2ccccc2Sc2ccccc21" was what?
Response: no

Prompt: In this assay, the call recorded for "CN(C)C(=S)SC(=S)N(C)C" was what?
Response: yes

Prompt: In this assay, the call recorded for "CC(=O)OCC(=O)[C@@]1(O)[C@H](C)C[C@H]2[C@@H]3CCC4=CC(=O)C=C[C@]4(C)[C@@]3(F)[C@@H](O)C[C@@]21C" was what?
Response: no

Prompt: In this assay, the call recorded for "CC1(C)O[C@@H]2C[C@H]3[C@@H]4C[C@H](F)C5=CC(=O)C=C[C@]5(C)[C@H]4[C@@H](O)C[C@]3(C)[C@]2(C(=O)CO)O1" was what?
Response: no

Prompt: In this assay, the call recorded for "OC(CCN1CCCCC1)(c1ccccc1)c1ccccc1" was what?
Response: no

Prompt: In this assay, the call recorded for CN1CCCC(CC2c3ccccc3Sc3ccccc32)C1 (configuration not stated) was what?
Response: yes

Prompt: In this assay, the call recorded for "CCOC(=O)c1cccc(N)c1" was what?
Response: no

Prompt: In this assay, the call recorded for CCN(CCCCOC(=O)c1ccc(OC)c(OC)c1)C(C)Cc1ccc(OC)cc1 (configuration not stated) was what?
Response: no

Prompt: In this assay, the call recorded for "Oc1cc(O)c2c(c1)O[C@H](c1ccc(O)c(O)c1)[C@H](O)C2" was what?
Response: no

Prompt: In this assay, the call recorded for "C=C1C[C@H]2[C@@H]3C=C(C)C4=CC(=O)CC[C@]4(C)[C@H]3CC[C@]2(C)[C@@]1(OC(C)=O)C(C)=O" was what?
Response: no

Prompt: In this assay, the call recorded for "O=c1c(-c2ccccc2)c1-c1ccccc1" was what?
Response: yes

Prompt: In this assay, the call recorded for "COc1cccc2c1C(=O)c1c(O)c3c(c(O)c1C2=O)C[C@@](O)(C(C)=O)C[C@@H]3O[C@H]1C[C@H](N)[C@H](O)[C@H](C)O1" was what?
Response: yes

Prompt: In this assay, the call recorded for "CCN1CCC[C@H]1CNC(=O)c1c(OC)ccc(Br)c1OC" was what?
Response: no

Prompt: In this assay, the call recorded for "CC(O)(P(=O)(O)O)P(=O)(O)O" was what?
Response: no

Prompt: In this assay, the call recorded for "CN1CCN(C(c2ccccc2)c2ccccc2)CC1" was what?
Response: no

Prompt: In this assay, the call recorded for "CCOC(=O)COc1ccc2c(C)c(CCN(CC)CC)c(=O)oc2c1Cl" was what?
Response: no

Prompt: In this assay, the call recorded for "CC1(C)OC[C@@H](COC(=O)CCc2ccc(OC[C@@H](O)CNCCNC(=O)N3CCOCC3)cc2)O1" was what?
Response: no

Prompt: In this assay, the call recorded for COc1ccc(OC)c(C(O)CNC(=O)CN)c1 (configuration not stated) was what?
Response: no

Prompt: In this assay, the call recorded for "CC1=C(C(=O)O)N2C(=O)[C@@H](NC(=O)[C@H](N)c3ccc(O)cc3)[C@H]2SC1" was what?
Response: no

Prompt: In this assay, the call recorded for "Cc1c(C(C)C)c(=O)n(-c2ccccc2)n1C" was what?
Response: no

Prompt: In this assay, the call recorded for "C[C@H]1C[C@H]2[C@@H]3CCC4=CC(=O)C=C[C@]4(C)[C@@]3(Cl)[C@@H](O)C[C@]2(C)[C@@]1(O)C(=O)CO" was what?
Response: no

Prompt: In this assay, the call recorded for "CC(=O)Nc1c(I)cc(I)c(C(=O)O)c1I" was what?
Response: no

Prompt: In this assay, the call recorded for "CCCOC(C(=O)OC1CCN(C)CC1)(c1ccccc1)c1ccccc1" was what?
Response: no

Prompt: In this assay, the call recorded for "COc1cc(/C=C/C(=O)O[C@H]2CC[C@]34C[C@]35CC[C@]3(C)[C@@H]([C@H](C)CCC=C(C)C)CC[C@@]3(C)[C@@H]5CC[C@H]4C2(C)C)ccc1O" was what?
Response: no

Prompt: In this assay, the call recorded for CCCCCCCCCCCCCCCCCC(=O)OCC(O)CO (configuration not stated) was what?
Response: no

Prompt: In this assay, the call recorded for "CCCCCCC[N+](CC)(CC)CCCCc1ccc(Cl)cc1" was what?
Response: yes

Prompt: In this assay, the call recorded for "CC1(C)O[C@@H]2C[C@H]3[C@@H]4C[C@H](F)C5=CC(=O)CC[C@]5(C)[C@H]4[C@@H](O)C[C@]3(C)[C@]2(C(=O)CO)O1" was what?
Response: no

Prompt: In this assay, the call recorded for "Cc1cccc(C)c1NC(=O)CN1CCN(CCCC(c2ccc(F)cc2)c2ccc(F)cc2)CC1" was what?
Response: no

Prompt: In this assay, the call recorded for "O=c1[nH]c(=O)n([C@H]2CCCO2)cc1F" was what?
Response: no

Prompt: In this assay, the call recorded for "CCN(CC)C(=O)N1CCN(C)CC1" was what?
Response: no

Prompt: In this assay, the call recorded for "CCCCC1=NC2(CCCC2)C(=O)N1Cc1ccc(-c2ccccc2-c2nn[nH]n2)cc1" was what?
Response: no

Prompt: In this assay, the call recorded for "CNCC[C@@H](Oc1ccccc1C)c1ccccc1" was what?
Response: no

Prompt: In this assay, the call recorded for "CCCCS(=O)(=O)N[C@@H](Cc1ccc(OCCCCC2CCNCC2)cc1)C(=O)O" was what?
Response: no

Prompt: In this assay, the call recorded for CCCCN1CCCC1C(=O)Nc1c(C)cc(C)cc1C (configuration not stated) was what?
Response: no

Prompt: In this assay, the call recorded for "NCCc1ccn[nH]1" was what?
Response: no

Prompt: In this assay, the call recorded for "COc1cc(C=C2CCC/C(=C\c3ccc(O)c(OC)c3)C2=O)ccc1O" was what?
Response: yes

Prompt: In this assay, the call recorded for "NC(CO)(CO)CO" was what?
Response: no

Prompt: In this assay, the call recorded for "CCCN1CCCC[C@H]1C(=O)Nc1c(C)cccc1C" was what?
Response: no
